tested on: human cervical tumor cell line HeLa (ATCC CCL-2); test: SAC-Formation - Nocodazole-Induced Assay; assay type: cell-based; conditions: Homo sapiens, HeLa, 24 h, HeLa cells, nocodazole 0.1 μg/ml together with test compound, decrease of mitotic cells (phospho-histone H3 Ser10)
ENDPOINT_NAME: pIC50
Give only the number. pIC50 is defined as minus log10 of concentration in molar units.

Guide cases for pIC50, answers given:
[[record]]
molecule = "Cc1nsc(Nc2cnc3ccccc3n2)c1C(=O)Nc1cccc(C(=O)Nc2ccc(N3CCOCC3)cc2)c1 [Example 65]"
assay_value = 6.39

[[record]]
molecule = "Cc1nsc(Nc2cnc(C(F)(F)F)cn2)c1C(=O)Nc1ccc(OCC2CCN(CCC(F)(F)F)C2)nc1 (stereo not drawn) [Example 124]"
assay_value = 7.62

[[record]]
molecule = "Cc1nsc(Nc2cnc3ccccc3n2)c1C(=O)Nc1ccc(OCCC(=O)OC(C)(C)C)nc1 [Example 198]"
assay_value = 6.00

[[record]]
molecule = "Cc1nsc(Nc2cnc(C(F)(F)F)cn2)c1C(=O)Nc1ccc(C(=O)NC2CN(CC(F)(F)F)C2)cc1 [Example 270]"
assay_value = 6.02

[[record]]
molecule = "Cc1nsc(Nc2cncc(C(F)(F)F)n2)c1C(=O)Nc1ccc(OC2CCN(C(=O)OC(C)(C)C)CC2)nc1 [Example 12]"
assay_value = 6.66


Ask: Fill in the recorded pIC50 for this molecule, with human cervical tumor cell line HeLa (ATCC CCL-2) as test system: Cc1nsc(Nc2cnc3ccccc3n2)c1C(=O)Nc1cccc(C(=O)NC(C)(C)C)c1 [Example 53]
Reply: 6.02

Ask: Same read-out for Cc1nsc(Nc2cnc3ccccc3n2)c1C(=O)Nc1cccc(C(=O)NCCN(C)C)c1 [Example 75] ?
Reply: 7.82

Ask: Same read-out for Cc1nsc(Nc2cnc3ccccc3n2)c1C(=O)Nc1ccc(NCCC(=O)OC(C)(C)C)nc1 [Example 236] ?
Reply: 5.52

Ask: Same read-out for Cc1nsc(Nc2cnc(C(F)(F)F)cn2)c1C(=O)Nc1ccc(F)c(OC2CCN(CC(F)F)C2)c1 (stereo not drawn) [Example 314] ?
Reply: 7.28

Ask: Same read-out for Cc1nsc(Nc2cnc(C(F)(F)F)cn2)c1C(=O)Nc1ccc(OC2CCN(C(=O)OC(C)(C)C)CC2)nc1 [Example 5] ?
Reply: 7.37

Ask: Same read-out for Cc1nsc(Nc2cnc(C(F)(F)F)cn2)c1C(=O)Nc1ccc(O[C@@H]2CCN(CC(F)(F)F)C[C@H]2F)nc1 [Example 367] ?
Reply: 7.57

Ask: Same read-out for Cc1nsc(Nc2cnc3ccccc3n2)c1C(=O)Nc1ccc(OC2CCN(CC(F)F)CC2)nc1 [Example 20] ?
Reply: 7.28

Ask: Same read-out for CNC(=O)c1ccc(NC(=O)c2c(C)nsc2Nc2cnc3ccccc3n2)cc1F [Example 207] ?
Reply: 6.70

Ask: Same read-out for Cc1nsc(Nc2cnccn2)c1C(=O)Nc1ccc(OC2CCCN(C(=O)OC(C)(C)C)C2)nc1 (stereo not drawn) [Example 41] ?
Reply: 6.62

Ask: Same read-out for Cc1nsc(Nc2ccc(C#N)cn2)c1C(=O)Nc1ccc(C(=O)OC(C)(C)C)cc1 [Example 98] ?
Reply: 8.42
